Every entry's value here was drawn from patent US20250248393A1.

# ASSAY_METHOD_TEXT: Direct diffusion of diffuser blocks (SPME GC/MS)
# Type: physicochemical
# CONDITION_SET: despecified pheromone 2%, 4 weeks
VALUE_KIND: direct diffusion from the diffuser block

# lookup: direct diffusion from the diffuser block of CCCCCCCC/C=C\CCCCCCCC(=O)OC [methyl oleate, methyl (Z)-octadec-9-enoate]
lowest intensity

Another compound to look at: CCCCCCCCCCCCCC(=O)OC [methyl myristate, methyl tetradecanoate]
diffuse better

Also CCCCCCCCCCCCCCCC(=O)OC [methyl palmitate, methyl hexadecanoate] , if possible.
diffuse better

CCCCC/C=C\C/C=C\CCCCCCCC(=O)OC [methyl linoleate, methyl (9Z,12Z)-octadeca-9,12-dienoate] , same question.
lowest intensity
